Data provenance: ChEMBL document CHEMBL5356931

TESTED_TARGET: MAP kinase-interacting serine/threonine-protein kinase 2 (Homo sapiens, UniProt Q9HBH9)
Sequence (Q9HBH9 whole entry): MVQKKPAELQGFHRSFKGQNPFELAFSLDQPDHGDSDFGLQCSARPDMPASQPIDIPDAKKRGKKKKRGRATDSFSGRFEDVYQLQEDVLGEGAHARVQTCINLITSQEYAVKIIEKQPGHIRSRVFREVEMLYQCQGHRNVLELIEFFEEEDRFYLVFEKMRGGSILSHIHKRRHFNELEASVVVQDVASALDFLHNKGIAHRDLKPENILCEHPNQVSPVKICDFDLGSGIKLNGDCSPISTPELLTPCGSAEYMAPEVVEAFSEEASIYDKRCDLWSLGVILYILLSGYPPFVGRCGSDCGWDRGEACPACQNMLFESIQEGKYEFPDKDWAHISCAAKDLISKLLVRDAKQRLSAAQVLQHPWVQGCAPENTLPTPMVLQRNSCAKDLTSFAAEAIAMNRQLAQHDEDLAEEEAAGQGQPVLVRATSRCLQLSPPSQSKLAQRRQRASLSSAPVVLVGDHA
ASSAY_READOUT: pIC50
# pIC50 is unitless: minus log10 of the molar concentration; print number only

Item under review: CN1CCN(C(=O)c2ccc(-c3cn4c(-c5ccc(C(=O)NO)cc5)cnc4cn3)cc2)CC1 . Reported pIC50?
7.52

* * *

TESTED_TARGET: Eukaryotic translation initiation factor 4E (Homo sapiens)
Sequence (P06730 whole entry): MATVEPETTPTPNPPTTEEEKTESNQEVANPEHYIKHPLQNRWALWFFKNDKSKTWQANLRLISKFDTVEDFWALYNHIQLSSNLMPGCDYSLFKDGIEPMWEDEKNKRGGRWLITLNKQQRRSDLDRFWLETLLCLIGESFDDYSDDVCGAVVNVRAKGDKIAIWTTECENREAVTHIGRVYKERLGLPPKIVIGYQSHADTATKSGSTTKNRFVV
ASSAY_READOUT: Kd (µM)
// note: answer is a bare numeric in µM

Item under review: NC(=O)c1ncn([C@@H]2O[C@H](CO)[C@@H](O)[C@H]2O)n1 . Reported Kd?
8.4
